# experimental-protocol: in vitro
# conditions: PAMPA, pH 7.4, Avg % Recovery, average of n=2; 10µM, PBS pH 7.4/7.4, 6h at room temperature
recovery at 6 h, 10 µM vs 80%: less than gives TRUE; not less than gives FALSE.

{"molecule": "O=C1NC(=O)C(=Cc2ccc(-c3ccccc3F)[nH]2)C(=O)N1", "class-assignment": "TRUE"}
{"molecule": "NC(=O)N1c2ccccc2C=Cc2ccccc21 [Carbamazepine]", "class-assignment": "FALSE"}

Asked: State whether 80% exceeds recovery at 6 h, 10 µM recorded for O=C1NC(=O)C(=Cc2ccc(N3CCOCC3)cc2[N+](=O)[O-])C(=O)N1 .
Given back: FALSE

Asked: State whether 80% exceeds recovery at 6 h, 10 µM recorded for CC(C)NCC(O)COc1cccc2ccccc12 (stereo not shown) .
Given back: FALSE

Asked: State whether 80% exceeds recovery at 6 h, 10 µM recorded for NS(=O)(=O)c1cc(C(=O)O)c(NCc2ccco2)cc1Cl [Furosemide] .
Given back: FALSE

Asked: State whether 80% exceeds recovery at 6 h, 10 µM recorded for O=C1NC(=O)C(=C/C=C/c2ccccc2)C(=O)N1 .
Given back: TRUE

Asked: State whether 80% exceeds recovery at 6 h, 10 µM recorded for COc1cc(C=C2C(=O)NC(=O)NC2=O)ccc1O .
Given back: FALSE
